FYI, the data here is from patent US11524960B2.

Biological target: MAT2A homodimer (Homo sapiens)
Construct: inferred from Ni sepharose purification and imidazole elution
Sequence (P31153 whole entry): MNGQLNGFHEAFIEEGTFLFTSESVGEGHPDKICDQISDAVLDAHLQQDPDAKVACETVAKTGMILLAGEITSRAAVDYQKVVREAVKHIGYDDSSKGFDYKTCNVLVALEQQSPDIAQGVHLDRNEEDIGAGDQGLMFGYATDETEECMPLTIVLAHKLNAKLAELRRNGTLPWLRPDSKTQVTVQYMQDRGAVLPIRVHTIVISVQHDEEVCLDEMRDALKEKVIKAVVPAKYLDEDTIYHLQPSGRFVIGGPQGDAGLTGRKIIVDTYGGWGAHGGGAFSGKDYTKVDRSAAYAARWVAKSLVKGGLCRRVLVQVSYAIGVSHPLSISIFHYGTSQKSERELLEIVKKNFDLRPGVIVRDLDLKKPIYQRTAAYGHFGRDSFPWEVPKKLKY
Assay: Biochemical assay: inhibition of MAT2A (phosphate release, PiColorLock Gold)
Conditions: MAT2A IC50 score; read-out: Enzyme Inhibition (Example 275)
endpointLabel: IC50

Would you please look over these solved cases?
• COc1ccc(-n2cc3cnc(NCC(F)(F)F)nc3c(-c3ccc(Br)cc3)c2=O)cc1 = < 0.1 µM
• Cn1cc2cc(-n3cc4ccc(CS(C)(=O)=O)nc4c(-c4ccc(Cl)cc4)c3=O)ccc2n1 = 0.1 to 1 µM
• COc1ccc(-c2c(=O)n(-c3ccc(=O)n(C)c3)cc3cnc(NCC(F)(F)F)nc23)cc1 = 0.1 to 1 µM
• Cn1cc2cc(-n3cc4cnc(NCC(F)F)nc4c(-c4ccc(OC(F)F)cc4)c3=O)ccc2n1 = < 0.1 µM

Return the recorded IC50 value; entry: `Cn1cc2cc(-n3cc4ccc(NCC(F)(F)F)nc4c(-c4ccc(CC(F)F)cc4)c3=O)ccc2n1`
< 0.1 µM

Return the recorded IC50 value; entry: `CCOc1ccc2cn(-c3ccc4nn(C)cc4c3)c(=O)c(-c3ccc(OC(F)F)nc3)c2n1`
< 0.1 µM

Return the recorded IC50 value; entry: `O=c1c(-c2ccc(OC(F)F)cc2)c2nc(OCC(F)(F)F)ncc2cn1-c1ccc2nc[nH]c2c1`
0.1 to 1 µM
